assay: Inhibition of Encephalitozoon cuniculi polyamine oxidase assessed as hydrogen peroxide release using N'-acetylspermine substrate by spectrophotometry
property_label: Ki (µM)
# output: bare number, implied unit µM

Which Ki value is on record for c1ccc(-c2ccccc2CNCCCNCCCCCCCNCCCNCc2ccccc2-c2ccccc2)cc1 ?
40

Recorded values, source ChEMBL document CHEMBL1649171.
